Where these numbers come from: ChEMBL document CHEMBL1133669

In this section we review reported Ki values for a set of compounds.
Biological target: Carbonic anhydrase 4 (Bos taurus)
Sequence (Q95323 whole entry): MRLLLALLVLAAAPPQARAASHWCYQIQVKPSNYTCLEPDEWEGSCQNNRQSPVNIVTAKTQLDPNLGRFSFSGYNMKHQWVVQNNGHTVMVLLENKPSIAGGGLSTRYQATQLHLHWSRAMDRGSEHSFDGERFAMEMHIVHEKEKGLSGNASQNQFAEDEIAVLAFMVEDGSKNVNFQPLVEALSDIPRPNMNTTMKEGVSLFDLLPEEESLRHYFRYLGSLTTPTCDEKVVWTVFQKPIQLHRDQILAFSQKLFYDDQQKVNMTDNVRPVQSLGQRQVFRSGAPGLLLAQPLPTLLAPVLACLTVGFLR
Form entry: value (µM) — number only.

Take a look at these entries with their results.
                           structure_smiles                        system_name  measurement_kind  unit_name  measurement
0  Cc1cc(C)[n+](CC(=O)/N=c2/sc(S(N)(=O)=O)nn2C)c(C)c1  Carbonic anhydrase 4 (Bos taurus)                Ki         µM         0.06
1  Cc1cc(-c2ccccc2)cc(C)[n+]1CC(=O)Nc1ccccc1S(N)(=O)=O  Carbonic anhydrase 4 (Bos taurus)                Ki         µM         0.29
2  Cc1cc(-c2ccccc2)cc(C)[n+]1CC(=O)Nc1nccc(Nc2ccc(S(N)(=O)=O)cc2)n1  Carbonic anhydrase 4 (Bos taurus)                Ki         µM         0.05

Bench note: what Ki did Cc1cc(C)[n+](CC(=O)Nc2ccc(S(=O)(=O)Nc3ccc(S(N)(=O)=O)cc3)cc2)c(C)c1 show?
0.078

Repeat for the following compound: Cc1cc(-c2ccccc2)cc(C)[n+]1CC(=O)OCCc1ccc(S(N)(=O)=O)cc1
0.069

Repeat for the following compound: Cc1cc(C)[n+](CC(=O)Nc2ccc(S(N)(=O)=O)cc2F)c(C)c1
0.044

Repeat for the following compound: Cc1cc(-c2ccccc2)cc(C)[n+]1CC(=O)Nc1c(S(N)(=O)=O)cc(S(N)(=O)=O)c(Cl)c1Cl
0.031

Repeat for the following compound: Cc1cc(-c2ccccc2)cc(C)[n+]1CC(=O)Nc1ccc(S(=O)(=O)/N=c2/sc(S(N)(=O)=O)nn2C)cc1
0.008

---

In this section we review reported pKi values for a set of molecules.
Molecular target: Carbonic anhydrase 4 (Bos taurus, UniProt Q95323)
Sequence (Q95323 whole entry): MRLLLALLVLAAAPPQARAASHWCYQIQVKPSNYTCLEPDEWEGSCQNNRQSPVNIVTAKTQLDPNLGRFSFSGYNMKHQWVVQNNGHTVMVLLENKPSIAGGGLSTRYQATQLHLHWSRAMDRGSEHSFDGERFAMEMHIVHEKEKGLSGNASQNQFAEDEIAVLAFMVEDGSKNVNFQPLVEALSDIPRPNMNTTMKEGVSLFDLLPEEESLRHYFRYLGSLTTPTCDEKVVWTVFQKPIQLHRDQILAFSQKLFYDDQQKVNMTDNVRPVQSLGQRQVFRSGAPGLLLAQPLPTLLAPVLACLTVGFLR
Scale: pKi equals -log10([C]), with [C] in mol/L.

                           structure_smiles  measurement
0  Cc1cc(C)[n+](CC(=O)Nc2c(S(N)(=O)=O)cc(S(N)(=O)=O)c(Cl)c2Cl)c(C)c1         7.17
1  CC(C)c1cc(-c2ccccc2)cc(C(C)C)[n+]1CC(=O)Nc1ccc(S(N)(=O)=O)cc1I         7.12

For the next question, use this molecule.
Bench note: what pKi did CC(C)c1cc(-c2ccccc2)cc(C(C)C)[n+]1CC(=O)OCc1ccc(S(N)(=O)=O)cc1 show?
6.92
